system: Fusarium culmorum; experiment: Fungistatic activity against Fusarium culmorum assessed as mycelial growth inhibition at 20 ug/ml after 4 to 8 days relative to control; format: functional; details: read-out: GI
measurement_name: inhibition of growth at 20 µg/mL (%)
Numeric only. Scale: %

molecule: Oc1ccc(C(=S)NN=C2c3ccccc3-c3ccccc32)c(O)c1
result_unit: %
meas_value: 0
//
molecule: Oc1ccc(C(=S)n2c(Cl)nc3ccccc32)c(O)c1
result_unit: %
meas_value: 0
//
molecule: Oc1ccc(C(=S)Nc2ccc(Oc3ccccc3)cc2)c(O)c1
result_unit: %
meas_value: 0
//
molecule: O=C(Nc1ccccc1)c1ccccc1NC(=S)c1ccc(O)cc1O
result_unit: %
meas_value: 0
//
molecule: CCOC(=O)Cc1csc(NC(=S)c2ccc(O)cc2O)n1
result_unit: %
meas_value: 0
//
molecule: Oc1ccc(C(=S)Nc2ccc(OCc3ccccc3)cc2)c(O)c1
result_unit: %
meas_value: 0
//
molecule: Oc1ccc(C(=S)NNC(=S)Nc2cccc(Cl)c2)c(O)c1
result_unit: %
meas_value: 0
//
molecule: CC(C)(C)c1cc(NC(=S)c2ccc(O)cc2O)no1
result_unit: %
meas_value: 21
//
molecule: Oc1ccc(C(=S)NC(=S)c2cccnc2)c(O)c1
result_unit: %
meas_value: 0
//
molecule: Oc1ccc(C(=S)Nc2ccccc2-c2ccccc2)c(O)c1
result_unit: %
meas_value: 0

Query: Find the recorded inhibition of growth at 20 µg/mL belonging to "COC(=O)Nc1nc2ccccc2[nH]1" and report it.
Reply: 81

Query: What inhibition of growth at 20 µg/mL value was documented for this molecule, "O=C(OC/C=C/c1ccccc1)c1ccccc1NC(=S)c1ccc(O)cc1O" ?
Reply: 41

====

test system: Botrytis cinerea; experiment: Fungistatic activity against Botryotinia fuckeliana assessed as mycelial growth inhibition at 20 ug/ml after 4 to 8 days relative to control; assay type: functional; details: read-out: GI
Reported inhibition of growth at 20 µg/mL by item:
Number in %, nothing else.

Solved cases below.
molecule: Oc1ccc(C(=S)Nc2ccc(Oc3ccccc3)cc2)c(O)c1
inhibition of growth at 20 µg/mL / %: 0

molecule: Oc1ccc(C(=S)Nc2ccccc2-c2ccccc2)c(O)c1
inhibition of growth at 20 µg/mL / %: 0

molecule: N#CCc1nn(-c2ccccc2)c(NC(=S)c2ccc(O)cc2O)c1C#N
inhibition of growth at 20 µg/mL / %: 0

Query: Field request: inhibition of growth at 20 µg/mL | item: "O=C(O)c1cc2cc(OCc3ccccc3)ccc2n1C(=S)c1ccc(O)cc1O"
Reply: 0

Query: Any idea what its inhibition of growth at 20 µg/mL is? The molecule is "Oc1ccc(C(=S)n2nnc3cc(Cl)ccc32)c(O)c1"
Reply: 21

Query: What value of measured inhibition of growth at 20 µg/mL is listed for CC12CC1(C)C(=O)N(c1cc(Cl)cc(Cl)c1)C2=O (centres undefined) [PROCYMIDONE] ?
Reply: 81

Query: What measured inhibition of growth at 20 µg/mL goes with "O=C(OC/C=C/c1ccccc1)c1ccccc1NC(=S)c1ccc(O)cc1O" ?
Reply: 21

Query: Name the recorded inhibition of growth at 20 µg/mL for "Oc1ccc(C(=S)n2c(Cl)nc3ccccc32)c(O)c1" .
Reply: 0

Query: Consider the molecule shown here: "CC(C)(C)c1nnc(NC(=S)c2ccc(O)cc2O)s1" What is its recorded inhibition of growth at 20 µg/mL?
Reply: 0
